tested_on: Sodium-dependent serotonin transporter (Homo sapiens, UniProt P31645)
Sequence (P31645 whole entry): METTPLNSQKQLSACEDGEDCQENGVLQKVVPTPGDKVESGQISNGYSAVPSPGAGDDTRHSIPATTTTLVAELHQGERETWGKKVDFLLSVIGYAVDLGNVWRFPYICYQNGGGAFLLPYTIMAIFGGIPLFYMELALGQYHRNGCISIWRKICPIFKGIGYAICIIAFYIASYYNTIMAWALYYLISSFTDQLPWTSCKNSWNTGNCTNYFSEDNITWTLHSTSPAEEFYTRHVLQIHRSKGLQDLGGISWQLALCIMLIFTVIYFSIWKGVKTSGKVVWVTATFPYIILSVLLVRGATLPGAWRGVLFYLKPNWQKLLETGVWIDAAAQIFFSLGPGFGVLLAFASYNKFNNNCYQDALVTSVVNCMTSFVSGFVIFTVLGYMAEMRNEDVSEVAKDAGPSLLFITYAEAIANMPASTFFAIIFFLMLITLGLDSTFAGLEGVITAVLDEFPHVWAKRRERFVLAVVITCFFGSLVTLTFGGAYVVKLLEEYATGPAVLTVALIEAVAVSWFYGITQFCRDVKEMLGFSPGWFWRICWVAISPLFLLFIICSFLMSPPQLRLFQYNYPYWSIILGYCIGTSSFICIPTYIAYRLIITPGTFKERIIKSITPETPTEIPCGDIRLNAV
protocol_details: Inhibition of [125I]RTI-55 binding to human SERT in clonal cells
For each record, write down the corresponding pKd.
One number for each entry, as −log10 of the molar value.

Fc1ccc(C(OCCN2CCN(CCCc3ccccc3)CC2)c2ccccc2)cc1 (stereo unspecified) | 6.21
c1ccc(CCCN2CCN(CCN(Cc3ccccc3)c3ccccn3)CC2)cc1 | 6.28
Fc1ccc(C(OCCN2CCN(C/C=C/c3ccccc3)CC2)c2ccccc2)cc1 (stereo unspecified) | 6.67
C(=C\c1ccccc1)/CN1CCN(CCN(Cc2ccccc2)c2ccccn2)CC1 | 6.17
COc1ccc(CN(CCN2CCN(C/C=C/c3ccccc3)CC2)c2ccccn2)cc1 | 6.64
O=C(CCCN1CCN(CCCc2ccccc2)CC1)N(Cc1ccccc1)c1ccccc1 | 6.28
COc1cccc(C(OCCN2CCN(C/C=C/c3ccccc3)CC2)c2cccc(Br)c2)c1 (stereo unspecified) | 6.13
Fc1ccc(CN(CCN2CCN(CCCc3ccccc3)CC2)c2ccccn2)cc1 | 6.64
Cc1ccc(CN(CCN2CCN(CCCc3ccccc3)CC2)c2ccccc2)cc1 | 6.09
Fc1ccc(CCCN2CCN(CCOC(c3ccc(F)cc3)c3ccc(F)cc3)CC2)cc1 | 6.44

For each of the compounds below, note its pKd.
1. COc1ccc(CN(CCN2CCN(CCCc3ccccc3)CC2)c2ccccn2)cc1
2. Fc1ccc(/C=C/CN2CCN(CCOC(c3ccccc3)c3ccccc3)CC2)cc1
3. COc1ccc(OC)c(/C=C/CN2CCN(CCOC(c3ccc(F)cc3)c3ccc(F)cc3)CC2)c1
4. Fc1ccc(/C=C/CN2CCN(CCOC(c3ccccc3)c3ccc(F)cc3)CC2)cc1 (stereo unspecified)
5. Fc1ccc(C(OCCN2CCN(C/C=C/Cc3ccccc3)CC2)c2ccc(F)cc2)cc1
6. c1ccc(CCCN2CCN(CCCCCN(Cc3ccccc3)c3ccccc3)CC2)cc1
7. c1ccc(CCCN2CCN(CCCCN(Cc3ccccc3)c3ccccc3)CC2)cc1

1: 6.79; 2: 5.88; 3: 6.74; 4: 6.70; 5: 7.14; 6: 6.63; 7: 6.88

For each of the compounds below, note its pKd.
1. C(=C\c1ccccc1)/CN1CCN(CCN(Cc2ccccc2)c2ccccc2)CC1
2. Fc1ccc(CN(CCN2CCN(CCCc3ccccc3)CC2)c2ccc(F)cc2)cc1
3. Fc1ccc(C(OCCN2CCN(C/C=C/c3ccc(Cl)cc3)CC2)c2ccc(F)cc2)cc1
4. Fc1ccc(C(OCCN2CCN(C/C=C/c3ccccc3)CC2)c2ccc(Cl)cc2)cc1 (stereo unspecified)
5. Fc1ccc(C(OCCN2CCN(Cc3ccccc3)CC2)c2ccc(F)cc2)cc1
6. O=C(/C=C/c1c(Cl)cccc1Cl)N1CCN(CCOC(c2ccc(F)cc2)c2ccc(F)cc2)CC1
7. COc1ccc(CN(CCCN2CCN(CCCc3ccccc3)CC2)c2ccccn2)cc1

6.22
6.57
6.09
6.72
6.74
6.68
7.23

For each of the compounds below, note its pKd.
1. c1ccc(CCCN2CCN(CCN(Cc3ccccc3)c3ccccc3)CC2)cc1
2. COc1ccc(OC)c(/C=C/C(=O)N2CCN(CCOC(c3ccc(F)cc3)c3ccc(F)cc3)CC2)c1

1. 5.92
2. 6.69
